Target: T1, Human ASGR-2 (human, UniProt P07307 1-311)
T1 construct: Expressed on HEK 293 cells; cDNA GenBank NM_080913.3; also called huASGR-2; hASGR-2
T1 sequence: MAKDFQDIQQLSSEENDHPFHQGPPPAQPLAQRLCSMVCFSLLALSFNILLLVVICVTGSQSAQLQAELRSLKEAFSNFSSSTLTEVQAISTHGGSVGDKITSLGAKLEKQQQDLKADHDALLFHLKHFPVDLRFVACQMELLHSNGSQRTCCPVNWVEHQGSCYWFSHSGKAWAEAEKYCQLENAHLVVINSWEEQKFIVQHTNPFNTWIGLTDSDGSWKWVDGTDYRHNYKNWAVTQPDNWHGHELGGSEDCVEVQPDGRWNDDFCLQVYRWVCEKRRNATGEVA
Assay: FACS on transfected HEK 293 cells; binding = signal at least 2x irrelevant IgG

Binder	binding result
25A4 (antibody, V domains shown, Tested as hybridoma supernatant at normalized concentration) VH: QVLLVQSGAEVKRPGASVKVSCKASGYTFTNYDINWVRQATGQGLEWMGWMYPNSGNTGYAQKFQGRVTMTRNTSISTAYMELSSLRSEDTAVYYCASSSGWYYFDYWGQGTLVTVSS VL: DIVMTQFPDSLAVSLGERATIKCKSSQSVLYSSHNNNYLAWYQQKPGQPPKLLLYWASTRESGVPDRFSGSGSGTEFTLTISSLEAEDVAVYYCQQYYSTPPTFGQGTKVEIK	no binding
75G3 (antibody, V domains shown, Tested as hybridoma supernatant at normalized concentration) VH: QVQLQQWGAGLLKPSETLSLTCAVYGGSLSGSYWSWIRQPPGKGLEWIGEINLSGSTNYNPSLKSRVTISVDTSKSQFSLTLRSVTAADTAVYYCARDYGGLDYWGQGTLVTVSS VL: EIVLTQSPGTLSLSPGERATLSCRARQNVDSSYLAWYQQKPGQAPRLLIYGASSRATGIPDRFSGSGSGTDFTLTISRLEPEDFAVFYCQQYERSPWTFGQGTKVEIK	no binding
176H4 (antibody, V domains shown, Tested as hybridoma supernatant at normalized concentration) VH: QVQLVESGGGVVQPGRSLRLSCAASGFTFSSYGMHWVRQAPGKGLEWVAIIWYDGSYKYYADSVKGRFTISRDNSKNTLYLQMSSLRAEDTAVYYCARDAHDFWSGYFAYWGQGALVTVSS VL: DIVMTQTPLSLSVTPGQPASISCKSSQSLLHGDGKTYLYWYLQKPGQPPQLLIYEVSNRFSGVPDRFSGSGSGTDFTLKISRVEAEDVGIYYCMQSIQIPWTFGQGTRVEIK	no binding
